Origin of measurements: ChEMBL document CHEMBL1123655

- System: HeLa
- assay_explanation: Effect on growth and macromolecule synthesis by HeLa cells was determined as the percentage inhibition of [3H]- leucine incorporation after 3h of addition at 100 uM
- Type: functional
- applied_conditions: Homo sapiens
property_measured: inhibition at 100 µM (%)
Answer in %, number only, no unit symbol.

Observe how each entry below is paired with its result.
{"molecule_smiles": "CCCCc1ccc(Nc2nc(N)c3ncn([C@@H]4C[C@@H](O)[C@H](CO)O4)c3n2)cc1", "unit_symbol": "%", "inhibition at 100 µM": 56}
{"molecule_smiles": "CCCCc1ccc(Nc2nc3c(ncn3[C@@H]3C[C@@H](O)[C@H](CO)O3)c(=O)[nH]2)cc1", "unit_symbol": "%", "inhibition at 100 µM": 7}
{"molecule_smiles": "CCCCc1ccc(Nc2nc(Cl)c3ncn([C@@H]4C[C@@H](O)[C@H](CO)O4)c3n2)cc1", "unit_symbol": "%", "inhibition at 100 µM": 87}

q: inhibition at 100 µM lookup needed for CCCCc1ccc(Nc2ncc3ncn([C@@H]4C[C@@H](O)[C@H](CO)O4)c3n2)cc1 , thanks.
a: 58
